- Protocol: One-photon absorption spectra of dyes (λmax abs, logε)
- Type: physicochemical
- Experimental Conditions: Ethanol
# note: boundary value 600 nm maps to n; λmax abs below it maps to y

Enquiry: Hello, is λmax abs of the following compound strictly smaller than 600 nm? CCCCN(CCCC)c1ccc2cc(/C=C(\F)c3cc[n+](CCC[N+](CC)(CC)CC)cc3)ccc2c1C(F)(F)F [PY4125]
Return: y

Enquiry: I wonder whether CCCCN(CCCC)c1ccc2cc(/C=C/c3c(F)c[n+](CCC[N+](CC)(CC)CC)c4ccccc34)ccc2c1 [PY4221] has λmax abs below 600 nm. Can you tell?
Return: n

Enquiry: λmax abs strictly < 600 nm for this compound? CCCCN(CCCC)c1ccc2cc(/C=C(\F)c3cc[n+](CCC[N+](CC)(CC)CC)cc3F)ccc2c1 [PY4160]
Return: y

Enquiry: Consider CCCCN(CCCC)c1ccc2cc(/C=C/c3c(F)c[n+](CCC[N+](CC)(CC)CC)cc3F)ccc2c1 [PY3184] . Does its λmax abs lie strictly below 600 nm?
Return: y

Enquiry: Below 600 nm on λmax abs? Entry CCCCN(CCCC)c1ccc2cc(/C=C/c3cc[n+](CCC[N+](CC)(CC)CC)cc3)ccc2c1F [PY3174]
Return: y

Enquiry: Does the reported λmax abs of the following compound sit strictly below 600 nm? CCCCN(CCCC)c1ccc2cc(/C=C(\F)c3cc[n+](CCC[N+](CC)(CC)CC)cc3)ccc2c1F [PY4038]
Return: y

====

- Protocol: One-photon absorption spectra of dyes (λmax abs, logε)
- Type: physicochemical
- Experimental Conditions: Lipid vesicles
Values of λmax abs greater than or equal to 500 nm map to yes (1); values below map to no (0).

Enquiry: Could you tell me if the measured λmax abs of CCCCN(CCCC)c1ccc2cc(/C=C/c3c(F)c[n+](CCC[N+](CC)(CC)CC)c4ccccc34)ccc2c1 [PY4221] reaches 500 nm or more?
Return: yes (1)

Enquiry: Confirm if λmax abs reported for the compound CCCCN(CCCC)c1ccc2cc(/C=C/c3c(F)c[n+](CCC[N+](CC)(CC)CC)c4ccccc34)ccc2c1 [PY3304] is 500 nm or above.
Return: yes (1)

Enquiry: Determine whether measured λmax abs meets or exceeds 500 nm for CCCCN(CCCC)c1ccc2cc(/C=C(\F)c3cc[n+](CCC[N+](CC)(CC)CC)cc3)ccc2c1C(F)(F)F [PY4125]
Return: no (0)

Enquiry: Record CCCCN(CCCC)c1ccc2cc(/C=C/c3cc[n+](CCC[N+](CC)(CC)CC)cc3)ccc2c1C(F)(F)F [PY4093] ; criterion: λmax abs no lower than 500 nm. Met?
Return: no (0)

====

- Protocol: Photobleaching rate under white light from a xenon lamp
- Format: physicochemical
- Experimental Conditions: single exponential decay fit of absorbance
Measured Property: Photobleaching rate (Relative to unsubstituted dye)
The reply should be a number, written without any unit.

Enquiry: What measured Photobleaching rate (Relative to unsubstituted dye) goes with CCCCN(CCCC)c1ccc2cc(/C=C/c3c(F)c[n+](CCC[N+](CC)(CC)CC)cc3F)ccc2c1 ?
Return: 1.56

Enquiry: Which measured Photobleaching rate (Relative to unsubstituted dye) value corresponds to CCCCN(CCCC)c1ccc2cc(/C=C/c3cc[n+](CCC[N+](CC)(CC)CC)cc3)ccc2c1C(F)(F)F ?
Return: 0.95

Enquiry: Consider the molecule CCCCN(CCCC)c1ccc2cc(/C=C(\F)c3cc[n+](CCC[N+](CC)(CC)CC)cc3)ccc2c1C(F)(F)F and give its measured Photobleaching rate (Relative to unsubstituted dye).
Return: 1.35

Enquiry: Given the entry CCCCN(CCCC)c1ccc2cc(/C=C(\F)c3cc[n+](CCC[N+](CC)(CC)CC)cc3F)ccc2c1 , report its measured Photobleaching rate (Relative to unsubstituted dye).
Return: 0.66
